# Tested on: Hs578T complex spheroid growth, percent test/control
# method: Anticancer human tumor Hs578T cell line growth inhibition [AhR];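 further: luminescent viability signal as a proxy for spheroid growth; spheroids exposed to agents for one week after three days of growth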
# test-conditions: curve of first compound; second compound 3.16 µM
result-type: IC50

Query string: Answer with the recorded IC50 of COc1cc(Nc2ncc3c(n2)-c2ccc(Cl)cc2C(c2c(F)cccc2OC)=NC3)ccc1C(=O)O + CC(CO)NC(=O)c1cc(-c2ccc(Cl)cc2)nn(-c2cnn(C)c2)c1=O only.
Result string: > 10000 nM

Query string: Answer with the recorded IC50 of NS(=O)(=O)OCC1CC(n2ccc3c(NC4CCc5ccccc54)ncnc32)CC1O (stereo not drawn) + CC(CO)NC(=O)c1cc(-c2ccc(Cl)cc2)nn(-c2cnn(C)c2)c1=O only.
Result string: 2010 nM

Query string: Answer with the recorded IC50 of Nc1ncn(C2CC(O)C(CO)O2)c(=O)n1 (stereo not drawn) + Cc1cncc(-c2nc(NCCc3c[nH]c4ccccc34)c3ncn(C(C)C)c3n2)c1 only.
Result string: > 1000 nM

---

# System: Hs578T complex spheroid growth, percent test/control
# method: Anticancer human tumor Hs578T cell line growth inhibition [AhR];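 further: luminescent viability signal as a proxy for spheroid growth; spheroids exposed to agents for one week after three days of growth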
# test-conditions: curve of first compound; second compound 0.1 µM
# Excerpt: Multicellular complex tumor spheroid response to aryl hydrocarbon receptor antagonists in combination with a variety of drugs and investigational agents in selected tumor cell lines […] Compounds. […] If the clinical Cmax for an agent had not been determined, the highest concentration tested was 10 microM (Table 1). […]
Assignment: determine reported IC50 for the given molecules.

Query string: Answer with the recorded IC50 of CC(C)c1c(-c2ccccc2)nc2c(C#N)c[nH]n2c1=O + Cc1cncc(-c2nc(NCCc3c[nH]c4ccccc34)c3ncn(C(C)C)c3n2)c1 only.
Result string: > 10 µM

Query string: Answer with the recorded IC50 of Nc1ncn(C2CC(O)C(CO)S2)c(=O)n1 (stereo not drawn) + Cc1cncc(-c2nc(NCCc3c[nH]c4ccccc34)c3ncn(C(C)C)c3n2)c1 only.
Result string: > 0.3 µM

Query string: Answer with the recorded IC50 of O=C(c1cc(Cc2n[nH]c(=O)c3ccccc23)ccc1F)N1CCN(C(=O)C2CC2)CC1 + CC(CO)NC(=O)c1cc(-c2ccc(Cl)cc2)nn(-c2cnn(C)c2)c1=O only.
Result string: > 10 µM

---

# System: Hs578T complex spheroid growth, percent test/control
# method: Anticancer human tumor Hs578T cell line growth inhibition [AhR];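 further: luminescent viability signal as a proxy for spheroid growth; spheroids exposed to agents for one week after three days of growth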
# test-conditions: curve of first compound; second compound 0.1 µM
Assignment: determine reported IC50 for the given molecules.

Query string: Send back Hs578T complex spheroid growth, percent test/control IC50 of COc1cc(Nc2ncc3c(n2)-c2ccc(Cl)cc2C(c2c(F)cccc2OC)=NC3)ccc1C(=O)O + Cc1cncc(-c2nc(NCCc3c[nH]c4ccccc34)c3ncn(C(C)C)c3n2)c1 only.
Result string: > 10 µM

Query string: Send back Hs578T complex spheroid growth, percent test/control IC50 of O=C(c1cc(Cc2n[nH]c(=O)c3ccccc23)ccc1F)N1CCN(C(=O)C2CC2)CC1 + Cc1cncc(-c2nc(NCCc3c[nH]c4ccccc34)c3ncn(C(C)C)c3n2)c1 only.
Result string: > 10 µM

Query string: Send back Hs578T complex spheroid growth, percent test/control IC50 of Nc1ncn(C2CC(O)C(CO)O2)c(=O)n1 (stereo not drawn) + Cc1cncc(-c2nc(NCCc3c[nH]c4ccccc34)c3ncn(C(C)C)c3n2)c1 only.
Result string: > 1 µM
